Overview of reported M-CSF Mouse Monocytic Cell Proliferation Assay [IC50, M] across a group of binders:
System: T1, human M-CSF (human, UniProt P09603 33-190)
T1 chain: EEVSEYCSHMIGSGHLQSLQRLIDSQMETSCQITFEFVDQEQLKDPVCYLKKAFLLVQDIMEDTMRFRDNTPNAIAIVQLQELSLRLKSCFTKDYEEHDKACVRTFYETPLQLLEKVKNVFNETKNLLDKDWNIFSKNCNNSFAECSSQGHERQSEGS
Experimental details: cell-based or functional assay
Numbers only; they are read as M.

The examples below pair each entry with its known result.
{"Binder": "monoclonal antibody 100 (antibody, human IgG2, kappa, V domains shown) VH: EVQLLESGGGLVQPGGSLRLSCAASGFTFSSYAMSWVRQAPGKGLEWVSAISGRGGRTYFADSVKGRFTISRDNSKNTLYLQMNSLRAEDTAVYFCAVEGYSGRYGFFDYWGQGTLVTVSS VL: EIVMTQSPATLSVSPGERATLSCRASQSVSSNLAWYQQKPGQAPRLLIYGASTRASGIPDRISGSGSGTEFTLIISSLQSEDFAVYYCQQSNNWPFTFGPGTKVDIKR", "Unit tag": "M", "Test result": "7.44e-10"}
{"Binder": "monoclonal antibody 252 (antibody, human IgG2, kappa, V domains shown) VH: QVQLVESGGGLVKPGGSLRLSCAASGFTFSDYYMSWIRQAPGKGLEWISYISGSGSTIYYADSVKGRFTISRDNAKNSLYLQMNSLRAEDTAVYHCARALGGMDVWGQGTTVTVSS VL: DIQMTQSPSSLSASVGDRVTITCRASQSISGFLNWYQQKPGKAPKLLIYATSSLQSGVPFRFSGSGSGTDFTLTISSLQPEDFATYYCQQSYSVPFTFGPGTKVDIKR", "Unit tag": "M", "Test result": "1.86e-10"}
{"Binder": "monoclonal antibody 88 (antibody, human IgG2, kappa, V domains shown) VH: EVQLVESGGGLVQPGGSLRLSCAASGFTFSSYWMSWVRQAPGKGLEWVANIKQDGSEKYYVDSVKGRFTISRDNAKNSLYLQMNSLRAEDTAVYYCAPGIAAAGRAYWGQGTLVTVSS VL: DIQMTQSPSSLSASVGDRVTITCRPSQDISSYLNWYQQKPGKAPKLLIYAASSLQSGVPLRFSGSGSGTDFTLTISSLQPEDFATYYCQQSYSTPFTFGPGTKVDIKR", "Unit tag": "M", "Test result": "2.31e-10"}

M-CSF Mouse Monocytic Cell Proliferation Assay [IC50, M] lookup needed for monoclonal antibody 3.8.3 (antibody, human IgG2, kappa, V domains shown) VH: QVQLVESGGGLVKPGGSLRLSCAASGFTFSDYYMSWIRQAPGKGLEWFSYISSSGSTIYYADSVKGRFTISRDNAKNSLSLQMNSLRAEDTAVYYCARGLTGDYWGQGTLVTVSS VL: DIQMTQSPSSVSASVGDRVTISCRASQDISGWLAWYQQKPGKAPKLLISATSSLHSGVPSRFSGSGSGTDFTLTISSLQPEDFATYYCQQTNSFPFTFGPGTKVDIKR , thanks.
7.3e-11

M-CSF Mouse Monocytic Cell Proliferation Assay [IC50, M] lookup needed for monoclonal antibody 2.7.3 (antibody, human IgG4, kappa, V domains shown) VH: QVQLVESGGGVVQPGRSLRLSCAASGFTFSSYGMHWVRQAPGKGLEWVAFIWYDGSNKYYADSVKGRFTISRDNSKNTLYLQMNSLRAEDTAVYYCARGYRVYFDYWGQGTLVTVSS VL: DIQMTQSPSSVSASVGDRVTITCRASQDISSWLAWYQRKPGKAPKLQIYAASSLESGVPSRFNGSGSGTDFTLSISSLQPEDFATYYCQQTNSFPLTFGGGTKVEIKR , thanks.
1.96e-10
